MCH values, listed per item
Organism: Rattus norvegicus
Assay: Open TG-GATES - Regimen: Daily Repeat
Type: toxicity, organism-based, Sprague-Dawley
Set-up: regimen Daily Repeat, gender Male, age 6 weeks
Conditions: in vivo, po, 0 mg/kg, […], tissue Blood, route gavage, dose level Control, time 28 day
Please reply with the bare figure in pg and do not write the unit itself.

// returns reported MCH for input COc1ccc(Cl)cc1C(=O)NCCc1ccc(S(=O)(=O)NC(=O)NC2CCCCC2)cc1 [GLYBURIDE] 20.1

====

Species: Rattus norvegicus
Assay: Open TG-GATES - Regimen: Daily Repeat
Type: toxicity, organism-based, Sprague-Dawley
Parameters: regimen Daily Repeat, gender Male, age 6 weeks
Settings: in vivo, po, 0 mg/kg, […], tissue Plasma, route gavage, dose level Control, time 28 day
LDH values, listed per item
Please reply with the bare figure in IU/L and do not write the unit itself.

// returns reported LDH for input "Cn1cnc([N+](=O)[O-])c1Sc1ncnc2nc[nH]c12" 175.2

Entry "Cc1cccc(Nc2cc(Cl)nc(SCC(=O)O)n2)c1C" please 48.8

Entry O=P1(N(CCCl)CCCl)NCCCO1 (stereo unspecified) [CYCLOPHOSPHAMIDE ANHYDROUS] please 121.8

Entry "O=C1CN(/N=C/c2ccc(-c3ccc([N+](=O)[O-])cc3)o2)C(O)=N1" please 83.2

====

Species on record: Rattus norvegicus
Assay: Open TG-GATES - Regimen: Daily Repeat
Assay type: toxicity, organism-based, Sprague-Dawley
Set-up: regimen Daily Repeat, gender Male, age 6 weeks
Conditions: in vivo, po, 0 mg/kg, […], tissue Liver, route gavage, dose level Control, time 7 day
REPORTED METRIC: LIVER (g)
Please reply with the bare figure in g and do not write the unit itself.

// returns reported LIVER for input O=P1(N(CCCl)CCCl)NCCCO1 (stereo not drawn) [CYCLOPHOSPHAMIDE ANHYDROUS] 11

Entry CS(=O)(=O)Nc1ccc([N+](=O)[O-])cc1Oc1ccccc1 [NIMESULIDE] please 11.6

Entry "O=C1NC(=O)C(c2ccccc2)(c2ccccc2)N1" please 11.2

Entry COc1ccc(O)c(C(C)(C)C)c1.COc1ccc(O)cc1C(C)(C)C [BUTYLATED HYDROXYANISOLE] please 11.4

Entry "Cn1cnc([N+](=O)[O-])c1Sc1ncnc2nc[nH]c12" please 11.4

Entry COc1ccc(Cl)cc1C(=O)NCCc1ccc(S(=O)(=O)NC(=O)NC2CCCCC2)cc1 [GLYBURIDE] please 12.7

Entry "Cc1cccc(Nc2cc(Cl)nc(SCC(=O)O)n2)c1C" please 12.4

Entry "C=CCO" please 13.1

====

Species on record: Rattus norvegicus
Assay: Open TG-GATES - Regimen: Single
Assay type: toxicity, organism-based, Sprague-Dawley
Design: regimen Single, gender Male, age 6 weeks
Details: in vivo, po, 0 mg/kg, 6 h, tissue Plasma, route gavage, dose level Control
REPORTED METRIC: Cl (meq/L)
Please reply with the bare figure in meq/L and do not write the unit itself.

// returns reported Cl for input COc1ccc(O)c(C(C)(C)C)c1.COc1ccc(O)cc1C(C)(C)C [BUTYLATED HYDROXYANISOLE] 109

Entry S=C=Nc1cccc2ccccc12 [1-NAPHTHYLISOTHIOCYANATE] please 103.8

Entry C=CCO [ALLYL ALCOHOL] please 102.8

Entry Cn1cnc([N+](=O)[O-])c1Sc1ncnc2nc[nH]c12 [AZATHIOPRINE] please 106.4

Entry Cc1cccc(Nc2cc(Cl)nc(SCC(=O)O)n2)c1C [PIRINIXIC ACID] please 106.2

Entry COc1ccc(Cl)cc1C(=O)NCCc1ccc(S(=O)(=O)NC(=O)NC2CCCCC2)cc1 [GLYBURIDE] please 103

Entry CS(=O)(=O)Nc1ccc([N+](=O)[O-])cc1Oc1ccccc1 [NIMESULIDE] please 105.6

Entry O=C1CN(/N=C/c2ccc(-c3ccc([N+](=O)[O-])cc3)o2)C(O)=N1 [DANTROLENE] please 104.4
